Provide the recorded kinase still bound, per cent of control for the entries that follow.
target-desc: EPHA7 (human)
assay: KINOMEscan competition binding
applied-conditions: compound 10.0 µM
Answers are plain numbers, in %.

Recorded results for 5 molecules are shown here.
CN(C)C/C=C/C(=O)Nc1ccc(C(=O)Nc2cccc(Nc3nccc(-c4cccnc4)n3)c2)cc1    100
CCN1CCN(C(=O)Cc2ccc(Nc3ncc(F)c(Nc4ccc(C(=O)Nc5ccccc5Cl)cc4)n3)cc2)CC1    55
O=c1cc(N2CCOCC2)oc2c(-c3cccc4c3sc3ccccc34)cccc12    85
O=C(Nc1cccc(Nc2ncc(Br)c(NCCc3cnc[nH]3)n2)c1)N1CCCC1    44
COc1cc2ncn(-c3cc(OCc4ccccc4C(F)(F)F)c(C(N)=O)s3)c2cc1OC    79

Give one value of kinase still bound, per cent of control per listed molecule.
1. NC(=O)Nc1cc(-c2cccc(F)c2)sc1C(=O)N[C@@H]1CCCNC1
2. COc1ccc(N(C(=O)Oc2c(C)cccc2C)c2ccnc(Nc3ccc(N4CCN(C)CC4)cc3)n2)c(OC)c1
3. COc1cc2ncnc(-n3nc(-c4ccccn4)nc3N)c2cc1OC

1. 0.1
2. 26
3. 18

Dear colleague, could you send me kinase still bound, per cent of control for each of the items below? Thanks.
1. C[C@@H](Oc1cc(-c2cnn(C3CCNCC3)c2)cnc1N)c1c(Cl)ccc(F)c1Cl
2. CCN(CC)CCCCNc1ncc2cc(-c3cc(OC)cc(OC)c3)c(NC(=O)NC(C)(C)C)nc2n1
3. CCN(CC)CCCCNc1ncc2c(n1)N(C)C(=O)N(c1c(Cl)c(OC)cc(OC)c1Cl)C2
4. COc1cc(C(=O)N2CCC(N3CCN(C)CC3)CC2)ccc1Nc1ncc2c(n1)N(C)c1ccccc1C(=O)N2C

[0.3, 100, 100, 97]

Provide kinase still bound, per cent of control for all items below, preserving their order.
1. CNC(=O)c1ccc(Nc2cc(Nc3ccccc3S(=O)(=O)C(C)C)c3cc[nH]c3n2)nc1
2. C=CC(=O)Nc1ccc(CN(C(=O)Nc2c(Cl)c(OC)cc(OC)c2Cl)c2cc(Nc3ccc(N4CCN(C)CC4)cc3)ncn2)cc1
3. COc1cc(N2CCN(C)CC2)ccc1Nc1ncc2c(n1)N(C)c1ccccc1C(=O)N2C
4. Cc1n[nH]c2ccc(-c3cncc(OC[C@@H](N)Cc4c[nH]c5ccccc45)c3)cc12

1: 1.7; 2: 100; 3: 100; 4: 100

Return reported kinase still bound, per cent of control values for all items listed beneath this line.
1. N#CCNC(=O)c1ccc(-c2ccnc(Nc3ccc(N4CCOCC4)cc3)n2)cc1
2. CNC(=O)c1cc(Oc2ccc(NC(=O)Nc3ccc(Cl)c(C(F)(F)F)c3)cc2)ccn1

96
25

----------
target-desc: LATS1 (human)
assay: KINOMEscan competition binding
applied-conditions: compound 10.0 µM
result-type: kinase still bound, per cent of control (%)
Numbers only, in %.

Some compounds with known kinase still bound, per cent of control results, for comparison:
CN(C)C/C=C/C(=O)Nc1ccc(C(=O)Nc2cccc(Nc3nccc(-c4cccnc4)n3)c2)cc1    100
N#CCNC(=O)c1ccc(-c2ccnc(Nc3ccc(N4CCOCC4)cc3)n2)cc1    100

Please supply kinase still bound, per cent of control for each of the following items, keeping them in order.
1. CCN1CCN(C(=O)Cc2ccc(Nc3ncc(F)c(Nc4ccc(C(=O)Nc5ccccc5Cl)cc4)n3)cc2)CC1
2. COc1cc(C(=O)N2CCC(N3CCN(C)CC3)CC2)ccc1Nc1ncc2c(n1)N(C)c1ccccc1C(=O)N2C
3. CNC(=O)c1ccc(Nc2cc(Nc3ccccc3S(=O)(=O)C(C)C)c3cc[nH]c3n2)nc1
4. COc1ccc(N(C(=O)Oc2c(C)cccc2C)c2ccnc(Nc3ccc(N4CCN(C)CC4)cc3)n2)c(OC)c1
5. O=c1cc(N2CCOCC2)oc2c(-c3cccc4c3sc3ccccc34)cccc12
6. O=C(Nc1cccc(Nc2ncc(Br)c(NCCc3cnc[nH]3)n2)c1)N1CCCC1
7. C[C@@H](Oc1cc(-c2cnn(C3CCNCC3)c2)cnc1N)c1c(Cl)ccc(F)c1Cl
8. O=C1NC(=O)/C(=C/c2ccc3nccc(-c4ccncc4)c3c2)S1

[100, 100, 100, 78, 100, 21, 100, 80]

List kinase still bound, per cent of control for every entry below, keeping the order given.
1. COc1cc2ncn(-c3cc(OCc4ccccc4C(F)(F)F)c(C(N)=O)s3)c2cc1OC
2. COCC(=O)NC/C=C/c1ccc2ncnc(Nc3ccc(Oc4ccc(C)nc4)c(C)c3)c2c1
3. CCN(CC)CCCCNc1ncc2cc(-c3cc(OC)cc(OC)c3)c(NC(=O)NC(C)(C)C)nc2n1
4. CS(=O)(=O)N1CCN(Cc2cc3nc(-c4cccc5[nH]ncc45)nc(N4CCOCC4)c3s2)CC1

1. 100
2. 100
3. 100
4. 100

// for each compound in input: emit kinase still bound, per cent of control
1. CNC(=O)c1cc(Oc2ccc(NC(=O)Nc3ccc(Cl)c(C(F)(F)F)c3)cc2)ccn1
2. COc1cc(N2CCN(C)CC2)ccc1Nc1ncc2c(n1)N(C)c1ccccc1C(=O)N2C
3. COc1cc2ncnc(-n3nc(-c4ccccn4)nc3N)c2cc1OC
4. NC(=O)Nc1cc(-c2cccc(F)c2)sc1C(=O)N[C@@H]1CCCNC1
5. Cc1n[nH]c2ccc(-c3cncc(OC[C@@H](N)Cc4c[nH]c5ccccc45)c3)cc12
6. CCN(CC)CCCCNc1ncc2c(n1)N(C)C(=O)N(c1c(Cl)c(OC)cc(OC)c1Cl)C2
7. C=CC(=O)Nc1cc(-n2c(=O)ccc3cnc4ccc(-c5cn[nH]c5)cc4c32)ccc1C
8. C=CC(=O)Nc1ccc(CN(C(=O)Nc2c(Cl)c(OC)cc(OC)c2Cl)c2cc(Nc3ccc(N4CCN(C)CC4)cc3)ncn2)cc1

1: 79; 2: 100; 3: 100; 4: 11; 5: 3.8; 6: 100; 7: 100; 8: 100

Ref: the kinase profiling compilation of Christmann-Franck et al. (2016)
